Target or system Cathepsin S (Homo sapiens, UniProt P25774); metric pIC50; compiled from varied reports.
Hey, just a heads up that pIC50 is the negative log base 10 of the concentration in molar.

Observe how each entry below is paired with its result.
I'm curious: which pIC50 was measured for "C[C@@]1(NC(=O)[C@H](Cc2ccccc2)NC(=O)CCc2ccccc2)C(=O)N[C@H]1Oc1cccc(C(=O)OC(c2ccccc2)c2ccccc2)c1" tested on Cathepsin S (Homo sapiens, UniProt P25774)?
6.16

What is its pIC50 for Cathepsin S (Homo sapiens, UniProt P25774)? Entry: "CCC[C@H](NC(=O)[C@@H]1C[C@@H](S(=O)(=O)c2ccccc2Cl)CN1C(=O)C1(c2ccc(Cl)cc2)CC1)C(=O)C(=O)NC1CC1"
9.44

Please tell me: pIC50 of "N#CC1(NC(=O)C2(NC(=O)c3cc4ccc(-c5ccc(N6CCOCC6=O)cc5)cc4o3)CCC(F)(F)CC2)CC1" , system Cathepsin S (Homo sapiens, UniProt P25774)?
5.72

Please tell me: pIC50 of Cn1cc(-c2ccc(S(=O)(=O)[C@H]3C[C@@H](OC4CCC4)[C@H](C(=O)NC4(C#N)CC4)C3)c(C(F)(F)F)c2)cn1 (racemic) , system Cathepsin S (Homo sapiens, UniProt P25774)?
9.59

Next:
Test system Cathepsin S (Homo sapiens, UniProt P25774); read-out pIC50; what value for "Cc1cc(-c2c(C)noc2C)ccc1S(=O)(=O)[C@@H]1C[C@@H](C(=O)NC2(C#N)CC2)N(C(=O)C2(C(F)(F)F)CC2)C1" ?
9.19

Form: Entry = Cc1cc(-c2ccc(S(=O)(=O)[C@H]3C[C@@H](OC(C)C)[C@H](C(=O)NC4(C#N)CC4)C3)c(C(F)(F)F)c2)ccn1 (racemic) | System = Cathepsin S (Homo sapiens, UniProt P25774) | pIC50 = ____
9.70

Cathepsin S (Homo sapiens, UniProt P25774) / pIC50 / "Cc1cc(-c2ccc(S(=O)(=O)[C@@H]3C[C@@H](C(=O)NC4(C#N)CC4)[C@H](C(=O)N4CC(F)(F)C4)C3)c(C(F)(F)F)c2)ccn1" : value?
9.70

Requested read-out pIC50, target or system Cathepsin S (Homo sapiens, UniProt P25774), entry CCOC(=O)N1CCC(N2CCC2C(=O)N2C[C@H](Sc3ccc(F)cc3Cl)C[C@H]2C(=O)NC2(C#N)CC2)CC1 (stereo partly drawn)
8.17

###

From various publications: pIC50 for Cathepsin S (Homo sapiens, UniProt P25774).
The value called pIC50 is obtained by taking minus log10 of the concentration in mol/L.

Some molecules with recorded pIC50:
I'd like to know its pIC50. The molecule in question is "CCC[C@H](NC(=O)[C@@H]1C[C@@H](S(=O)(=O)c2ccc(Cl)cc2Cl)CN1C(=O)C1(c2ccc(Cl)cc2)CC1)C(=O)C(=O)NC1CC1"
9.20

I'd like to know its pIC50. The molecule in question is COCc1cn(-c2ccc(S(=O)(=O)[C@@H]3C[C@H](OC)[C@@H](C(=O)NC4(C#N)CC4)C3)c(C(F)(F)F)c2)nn1 (racemic)
8.90

Bench note: what pIC50 did "N#CC1(NC(=O)[C@@H]2C[C@@H](S(=O)(=O)c3ccc(OC4CCC4)cc3Cl)CN2C(=O)C2(C(F)(F)F)CC2)CC1" show?
8.97

Quick one: pIC50 of "CC[C@H](NC(=O)[C@@H]1C[C@@H](S(=O)(=O)c2ccc(F)cc2Cl)CN1C(=O)C1(c2ccc(Cl)cc2)CC1)C(=O)C(=O)NC1CC1" ?
9.25

Consider the molecule shown here: "N#CC1(NC(=O)[C@@H]2C[C@@H](S(=O)(=O)c3ccccc3)C[C@H]2C(=O)N2CCOCC2)CC1" What is its recorded pIC50?
9.15

Shifting focus to the molecule that follows.
For the molecule shown here, "CCCCNC(=O)C(=O)[C@H](CCC)NC(=O)[C@@H]1C[C@@H](S(=O)(=O)c2ccccc2Cl)CN1C(=O)C1(c2ccc(Cl)cc2)CC1" , give the reported pIC50.
9.13

###

System: Cathepsin S (Homo sapiens) | Read-out: IC50 | Origin: multiple publications
Your answer should be a plain number; it is taken to be in nM.

Fill blank: measured IC50 of the molecule CO[C@@H]1C[C@H](S(=O)(=O)c2ccc(-c3ccc(F)cc3)cc2C(F)(F)F)C[C@H]1C(=O)NC1(C#N)CC1 (racemic) is ____.
1.3

Record request: IC50 value, item "N#CC1(NC(=O)[C@@H]2C[C@@H](S(=O)(=O)c3ccccn3)CN2C(=O)C2(c3ncc(Cl)cc3F)CC2)CC1"
4.24

Name the reported IC50 value associated with the molecule "N#CC1(NC(=O)[C@@H]2C[C@@H](S(=O)(=O)c3ccc(-n4cnc(Cl)n4)cc3Cl)CN2C(=O)C2(C(F)(F)F)CC2)CC1"
0.563

Entry "COc1ncc(-c2ccc(S(=O)(=O)[C@@H]3C[C@@H](C(=O)NC4(C#N)CC4)N(C(=O)C4(C(F)(F)F)CC4)C3)c(C)c2)cn1" has what IC50?
0.592

For the next question, use this molecule.
If you can, please state the reported IC50 value of CO[C@@H]1C[C@H](S(=O)(=O)c2ccc(N3CCN(C(C)C)CC3)cc2C(F)(F)F)C[C@H]1C(=O)NC1(C#N)CC1 (racemic) .
0.923

###

Dear all, I have gathered published pIC50 values for Cathepsin S (Homo sapiens); the list follows.
Notebook: values listed as pIC50 are -log10 of the concentration (mol/L).

These solved cases illustrate the format of a correct answer.
What value of pIC50 on Cathepsin S (Homo sapiens) does "N#CC1(NC(=O)[C@@H]2C[C@@H](S(=O)(=O)c3ccc(-n4ccc(C(F)(F)F)n4)cc3)CN2C(=O)C2(C(F)(F)F)CC2)CC1" have?
8.99

Lab request: please report pIC50 under test system Cathepsin S (Homo sapiens) for Cn1cc(-c2ccc(S(=O)(=O)[C@H]3C[C@@H](OC4CCOCC4)[C@H](C(=O)NC4(C#N)CC4)C3)c(C(F)(F)F)c2)cn1 (racemic)
9.66

Could you share what pIC50 was measured for N#CC1(NC(=O)[C@@H]2C[C@@H](S(=O)(=O)c3ccc(N4CCN(CC(F)(F)F)CC4)cc3C(F)(F)F)C[C@H]2OC2CCCC2)CC1 (racemic) , tested on Cathepsin S (Homo sapiens)?
10.56

---
Please tell me: pIC50 of "CN1CCN(Cc2ccc(C(F)(F)[C@@H]3C[C@@H](C(=O)NC4(C#N)CC4)N(C(=O)C4(C(F)(F)F)CC4)C3)c(C(F)(F)F)c2)CC1" , system Cathepsin S (Homo sapiens)?
9.00

###

IC50 for Cathepsin S (Homo sapiens) - collated from the literature.

Please tell me: IC50 of "COc1cc(-c2ccc3cc(C(=O)NC4(C(=O)NC5(C#N)CC5)CCC(F)(F)CC4)oc3c2)ccc1C(=O)N1CCOCC1" , system Cathepsin S (Homo sapiens)?
> 10000 nM

Query for Cathepsin S (Homo sapiens): what IC50 does the record show for "Cn1ccc2c(-c3cnc(OCCO[C@H]4CCNC4)c(C(F)(F)F)c3)nc(C#N)nc21" ?
2.8 nM

Form entry - test system: Cathepsin S (Homo sapiens); read-out: IC50; compound: N#CC1(NC(=O)[C@@H]2C[C@@H](S(=O)(=O)c3ccccc3C(F)(F)F)C[C@H]2OC2CCCC2)CC1 (racemic)
8.35 nM

Let us examine a further case.
Please provide the recorded IC50 for "Cc1ccc(-c2ccc([C@H](N[C@@H](CC(C)C)C(=O)N3C[C@H](F)[C@H]4OCC(=O)[C@H]43)C(F)(F)F)cc2)cc1" , tested on Cathepsin S (Homo sapiens).
20000 nM

###

Values of IC50 for Cathepsin S (Homo sapiens), collected from a number of published sources:
Label 1 (yes) when IC50 is strictly below 2 nM; otherwise label 0 (no).

A selection of reference data follows.
Report whether reported IC50 is lower than 2 nM (strictly) for "CN1CCC[C@H]1C(=O)N1CC[C@H](OCCOc2ncc(-c3nc(C#N)nc4c3ccn4C)cc2C(F)(F)F)C1"
1 (yes)

Given CNC(=O)Cn1cc(-c2ccc(S(=O)(=O)[C@H]3C[C@@H](OC)[C@H](C(=O)NC4(C#N)CC4)C3)c(C(F)(F)F)c2)cn1 (racemic) , is recorded IC50 strictly lower than 2 nM?
1 (yes)

For N#CC1(NC(=O)[C@@H]2C[C@@H](S(=O)(=O)c3ccccc3Cl)C[C@H]2OCc2ccc(Cl)c(F)c2)CC1 (racemic) , is the recorded IC50 below the cut-off of 2 nM?
0 (no)

Continuing:
Hello, I'm reviewing records and need to know if IC50 of "CC(C)(NC(=O)[C@@H]1C[C@@H](S(=O)(=O)c2ccccc2Cl)CN1C(=O)C1(c2ccc(Cl)cc2)CC1)C(=O)C(=O)NC1CC1" is below 2 nM. Could you check?
0 (no)

Decide: IC50 of "Cn1ccc2c(-c3cnc(OCC4CCN(CC(C)(C)O)CC4)c(C(F)(F)F)c3)nc(C#N)nc21" strictly below 2 nM?
1 (yes)

hey, is IC50 for "N#CC1(NC(=O)[C@@H]2C[C@@H](S(=O)(=O)c3ccccc3)C[C@H]2C(=O)N2CCCC2)CC1" lower than 2 nM or not?
1 (yes)

# strict comparison: is reported IC50 < 2 nM? input = "N#CC1(NC(=O)[C@@H]2C[C@@H](S(=O)(=O)c3ccccc3Cl)CN2C(=O)C2(N3CCCCCC3)CC2)CC1"
1 (yes)
